# Measured target: fMet-Leu-Phe receptor (Homo sapiens) (UniProt P21462)
# Sequence (P21462 whole entry, looked up): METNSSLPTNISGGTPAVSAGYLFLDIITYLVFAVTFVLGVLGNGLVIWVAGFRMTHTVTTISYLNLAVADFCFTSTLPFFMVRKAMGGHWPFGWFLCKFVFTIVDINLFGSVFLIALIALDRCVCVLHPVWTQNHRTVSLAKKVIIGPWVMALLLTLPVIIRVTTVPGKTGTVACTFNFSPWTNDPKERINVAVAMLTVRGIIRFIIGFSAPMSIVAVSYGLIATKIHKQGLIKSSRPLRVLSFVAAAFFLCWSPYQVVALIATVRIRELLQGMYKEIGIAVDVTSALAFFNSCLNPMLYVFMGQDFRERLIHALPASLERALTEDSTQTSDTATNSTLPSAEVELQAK
# Test summary: FPR antagonists blocking calcium signaling, confirmation, cell-based, calcium response (AID 699)
# Measurement setup: FPR1 cells, ligand-induced calcium response inhibition; concentration not given here
The source made the active and inactive calls. The rule behind the calls is not given here.
Give one outcome, nothing more. List: 1 for active, -1 for inactive

| Molecule | Measured target | Qualitative label |
| --- | --- | --- |
| Cc1[nH]n2c(=O)c3c(nc2c1-c1ccc(Cl)cc1)CCC3 | fMet-Leu-Phe receptor (Homo sapiens) (UniProt P21462) | -1 |
| COCCN1C(=O)C(O)=C(C(=O)c2cccs2)C1c1ccccc1 (stereo not given) | fMet-Leu-Phe receptor (Homo sapiens) (UniProt P21462) | 1 |
| CCCOc1ccc(C2C(C(=O)c3ccco3)=C(O)C(=O)N2CCCn2ccnc2)cc1 (stereo not given) | fMet-Leu-Phe receptor (Homo sapiens) (UniProt P21462) | 1 |
| COc1ccc(OC)c(C2C(C(=O)c3cccs3)=C(O)C(=O)N2c2cc(C)on2)c1 (stereo not given) | fMet-Leu-Phe receptor (Homo sapiens) (UniProt P21462) | 1 |

Turning to the following molecule.
In: Call for entry "CCCCC1C(=O)N(c2ccccc2)N(c2ccccc2)C1=O" :
Out: 1

* * *

# Measured target: fMet-Leu-Phe receptor (Homo sapiens) (UniProt P21462)
# Test summary: FPR antagonists blocking calcium signaling, confirmation, cell-based, calcium response (AID 699)
# Measurement setup: FPR1 cells, ligand-induced calcium response inhibition; hits give high values; concentration not given here
Observed property: inhibition (%)
Lab book: enter the figure in %, no units written.

| Molecule | inhibition (%) |
| --- | --- |
| C=CCOc1cccc(C2C(C(=O)c3ccco3)=C(O)C(=O)N2CCN2CCOCC2)c1 (centres undefined) | 102 |

In: Using the record for Cc1ccsc1C1C2=C(CC(C)(C)CC2=O)Nc2ncnn21 (centres undefined) , state its measured inhibition.
Out: -0

In: Using the record for "O=C1C(C23CC4CC(CC(C4)C2)C3)C(=O)N(c2ccccc2)N1c1ccccc1" , state its measured inhibition.
Out: -0

In: Using the record for "CC1(C)S[C@@H]2[C@H](NC(=O)Cc3ccccc3)C(=O)N2[C@H]1C(=O)O" , state its measured inhibition.
Out: 79.1

In: Using the record for COCCCN1C(=O)C(O)=C(C(=O)c2ccco2)C1c1cccc(Br)c1 (centres undefined) , state its measured inhibition.
Out: 90.9

In: Using the record for COc1ccc(Cl)cc1-n1c(=S)sc2c(=O)[nH]c(SCC(=O)NCC3CCCO3)nc21 (centres undefined) , state its measured inhibition.
Out: 100

In: Using the record for COCCCN1C(=O)C(O)=C(C(=O)c2ccco2)C1c1ccc(Br)cc1 (centres undefined) , state its measured inhibition.
Out: 39.8

In: Using the record for COCCCN1C(=O)C(=O)/C(=C(/O)c2ccccc2)C1c1ccc2c(c1)OCO2 (centres undefined) , state its measured inhibition.
Out: 101

In: Using the record for O=C(C1=C(O)C(=O)N(Cc2ccccc2)C1c1ccncc1)c1ccco1 (centres undefined) , state its measured inhibition.
Out: -0

In: Using the record for CCCOc1ccc(C2C(C(=O)c3ccc(C)o3)=C(O)C(=O)N2CCCn2ccnc2)cc1 (centres undefined) , state its measured inhibition.
Out: 21.4

In: Using the record for "COc1ccccc1-c1c(C)oc2cc(OC(=O)c3ccco3)ccc2c1=O" , state its measured inhibition.
Out: 83.2
